assay.summary: yeast display, Sf9 membrane polyspecificity reagent, FACS + sequencing; frameworks hold sequencing errors
measured.property: polyreactivity (PSR sort gate)

sequence.chain	result
QVQLVESGGGLGQAGGSLRLSCAASGRTFYYNAMGWYRQAPGKERELVAAITRSGGRTYYADSVKGRFTISRDTAKNTVYLQMNSLKPEDTAVYYCAARWSSYYSSMDYWGQGSQVTVSS	high polyreactivity
QVQLVESGGGLVQAGGSLRLSCAASGSTLYPNPMGWYRQAPGTERELVAAISGTGGGTYYADSVKGRFTISRDNAKNTVYLQMNSLKPEDTAVYYCAADYVFAWWGDYYWGQGTQVTVSS	high polyreactivity
QVQLVESGGGLVQAGGSLRLSCAASGSIFVGYAMGWYRQAPGKERELVARISSDGDTYYADSVKGRFTISRDNAKNTVYLQMNSLKPEDTAVYYCNADLYGGGDKSVISGLNGEYEYWGQGTQVTVSS	low polyreactivity
QVQLVESGGGLVQAGGSLRLSCAASGITFFRYAMGWYRQAPGKERELVATIRSGDRTYYADSVKGRFTISRDNAKNTVYLQMNSLKPEDTAVYYCAAYDNRYTIRPENYWGQGTQVTVSS	high polyreactivity
QVQLVESGGGLVQAGGSLRLSCAASGSTFTINVMGWYRQAPGKERELVAAINGGGRTNYADSVKGRFTSSRDNAKNTVYLQMNSLKPEDTAVYYCAADGLSNVRQMDYWGQGTQVTVSS	low polyreactivity

====

assay.summary: yeast display, Sf9 membrane polyspecificity reagent, FACS + sequencing; frameworks hold sequencing errors

sequence.chain	polyreactivity (PSR sort gate)
QVQLVESGGDLVQAGGSLRLSCAASGRSYKYNDMGWYRQAPRKERELVADISSGVSTYYADSVKGRFTISRDNAKNTVYLQMNSLKPEDTAVYYFNAYSDGDEDYWGQGTQVTVSS	low polyreactivity
QVQLVESGGGLVQAGGSLRLSCAASGSIFVVYAMGWYRQAPGKARALVAAITSDDDTNYADSVKGRFTLSRDNAKNTVYLQMNSLKPEDTAVYYCAKEVWLAINTRTGYEVYYWGQGTQVTVTS	low polyreactivity
QVQLVESGGGLVQAGGSLRLSCAASGSTFGYYAMGWYRQAPGKERELVAAISWSGTRTYYADSVKGRFTISRDNAKNTVYLQMNSLKPEDTAVYYCAVRISRPREYYYWGQGTQVTVSS	high polyreactivity
QVQLVDSGGGLVQAGGSLRLSCAASGRTSYENAMGWYREAPGKERELVAAINVSGGSTYYADSVKGRFTISRDNAKNTVYLQMNSLKPEDTAVYYCAADNPYADARSSWYEYNDWGQGTQVTVSS	high polyreactivity
QVQLEESGGGLVQAGGSLRLSCAASGNIFFVYDMGWYRQAPGKERELVAAISWSGGSTYADSVKGRFTISRDNAKNTVYLQMNSLKPEDTAVYYCAAARYAYKHAFEYWGQGTQVTVSS	low polyreactivity

====

assay.summary: yeast display, Sf9 membrane polyspecificity reagent, FACS + sequencing; frameworks hold sequencing errors

sequence.chain	polyreactivity (PSR sort gate)
QVQLVESGGGLVQAGGSLRLSCAASGIIFTYYAMGWYRQAPGKERELVAAISVSGSSTYYADSVKGRFTISRDNAKNTVYLQMNSLKPEDTAVYYCAARYQWGTRGFGYWGQGTQVTVSS	high polyreactivity
QVQLVESGGGLVQAGGSLRLSCAPSGRIFQYNAMGWYRQAPGKERELGAAISNSTTRTYYADSVKGRFTISRDNAKNTVYLQMNSLKPEDTGVYYCAARGYFWSSYKYDYWVQGTQVTVSS	high polyreactivity
